Data provenance: patent US20080032921A1

# system: purified HLA-DR molecule DRB1*0404 (human)
# test-protocol: competition with 125I-labelled peptide for purified HLA
measured-parameter: pIC50
// pIC50 is dimensionless: -log10 of concentration (M)

Problem: What does the record list as pIC50 for PVHFRNQVKIRRRVD (modifications not checked) [… (Flu.PB2.135)] ?
Result: 5.22

Problem: What does the data say about its pIC50? Entry: KYPITADKRIMEMIP (modifications not checked) [… (Flu.PB2.57)]
Result: 5.64

Problem: Give its pIC50 value. Item: RGILEDEQMYQKCCN (modifications not checked) [… (Flu.PB1.683)]
Result: 4.98

Problem: Report pIC50 for QRGILEDEQMYQKCC (modifications not checked) [… (Flu.PB1.682)] please.
Result: 5.49

Problem: pIC50 for GGEVRNDDVDQSLII (modifications not checked) [… (Flu.PB2.250)] ?
Result: 6.34

Problem: Fill in the blank: the reported pIC50 of LRNLMSQSRTREILT (modifications not checked) [LRNLMS1SRTREILT (Flu.PB2.10)] is ____.
Result: 6.77

Problem: Query (binder): MVAYMLERELVRKTR (modifications not checked) [… (Flu.PB2.205)] ; field requested: pIC50
Result: 6.30
